Origin of the recorded values: PubChem BioAssay (NCI)

Tested on: RPMI-8226 leukemia
ASSAY_NAME: NCI-60 one-dose screen, 48 h
PROTOCOL_CONDITIONS: 10 µM unless noted
About 83,000 compounds went through this panel and 20% of them were active in at least one assay; those are over-represented in the sample as a whole. Activity calls are given as the source filed them. Rule for the calls: active = growth percent below 10; inactive = the rest.
Respond only with the outcome that fits, drawn from class 1 = active, class 0 = inactive

Record excerpt, results attached:
{"columns": ["COMPOUND", "CLASS_ASSIGNMENT"],
 "data": [
  ["NNc1ncccn1", "class 0"],
  ["O=C(c1cccc(C(=O)c2ccc3c4c(cccc24)C(=O)N(c2ccccc2)C3=O)c1)c1ccc2c3c(cccc13)C(=O)N(c1ccccc1)C2=O", "class 0"],
  ["O=c1[nH]c(=O)c2cc(Cl)cc(Cl)c2[nH]1", "class 0"]
]}

Field: outcome | Entry: "O=C(OCc1ccccc1)n1nnc2ccccc21"
class 0

Field: outcome | Entry: "COc1ccc(Nc2cc(Cl)ccc2C(=O)O)cn1"
class 0

* * *

Tested on: HOP-92 NSCLC
ASSAY_NAME: NCI-60 one-dose screen, 48 h (100 = growth as untreated, 0 = no growth, -100 = all killed)
PROTOCOL_CONDITIONS: 10 µM unless noted
Compounds without any hit were thinned out: in the full panel of roughly 83,000, 20% have a hit.
Quick reference for growth among some compounds
Field: numeric (%). Do not append units.

{"columns": ["COMPOUND", "growth, %"],
 "data": [
  ["Cc1ccc(O)c(N)c1", 126]
]}

Give growth only, for "CC(=O)N(C)N=Nc1ccc(C)cc1" , using HOP-92 NSCLC data.
100

Give growth only, for "O=[N+]([O-])c1c(Cl)ncnc1Cl" , using HOP-92 NSCLC data.
85.7

Give growth only, for C=CC(=O)OC1CCC(C(C)(C)CC)CC1 (centres undefined) , using HOP-92 NSCLC data.
115

Give growth only, for "NCCCN1CCCC1=O" , using HOP-92 NSCLC data.
105

Give growth only, for CN1CCCN(C(c2ccccc2)c2ccc(Br)cc2)CC1 (centres undefined) , using HOP-92 NSCLC data.
25.8

Give growth only, for CC1(c2ccccc2)CO1 (centres undefined) , using HOP-92 NSCLC data.
95.7

Give growth only, for "CCCc1cccc(CCC)c1NC(=O)Nc1cc(Cl)cc(Cl)c1" , using HOP-92 NSCLC data.
98.8

Give growth only, for COc1cc2c(c(OC)c1OC)-c1ccc(SC)c(=O)cc1[C@@H](NC1OC(CO)C(O)C(O)C1O)CC2 (some centres undefined) , using HOP-92 NSCLC data.
77.9

Give growth only, for "CSc1nsc(N)n1" , using HOP-92 NSCLC data.
95.6

Give growth only, for "COc1cccc(C(=O)O)c1OC" , using HOP-92 NSCLC data.
92.5

Give growth only, for "O=S(=O)(O)c1cccc2cccnc12" , using HOP-92 NSCLC data.
102

Give growth only, for "C=CCS(C)(=O)=O" , using HOP-92 NSCLC data.
99.4

Give growth only, for "Cc1[nH]nc(C(N)=O)c1[N+](=O)[O-]" , using HOP-92 NSCLC data.
84.1

* * *

Quick reference for growth among some molecules
Tested on: KM12 colon
ASSAY_NAME: NCI-60 one-dose screen, 48 h (100 = growth as untreated, 0 = no growth, -100 = all killed)
PROTOCOL_CONDITIONS: 10 µM unless noted
Compounds without any hit were thinned out: in the full panel of roughly 83,000, 20% have a hit.
Field: numeric (%). Do not append units.

{"columns": ["MOLECULE", "TARGET", "RESULT_NUMBER"],
 "data": [
  ["Cc1cc(C(=O)c2ccccc2)cc(C)c1O", "KM12 colon", 99.6],
  ["Cc1cccnc1NC1OC(=O)c2ccccc21 (configuration not stated)", "KM12 colon", 105],
  ["C=CCc1cc(OC)c(O)c(OC)c1", "KM12 colon", 104]
]}

Give growth only, for "Cc1ccc(OC(=O)c2ccccc2)cc1" , using KM12 colon data.
108

Give growth only, for "CC(=O)c1ccc(C)cc1" , using KM12 colon data.
106

Give growth only, for "CC(CO)(CO)C(=O)O" , using KM12 colon data.
106

Give growth only, for CC(=O)NC(CCc1ccc(Cl)c(Cl)c1)c1cccc(O)c(=O)c1 (configuration not stated) , using KM12 colon data.
18.1
